# test.target: human FAAH (Homo sapiens)
# Sequence (O00519 whole entry): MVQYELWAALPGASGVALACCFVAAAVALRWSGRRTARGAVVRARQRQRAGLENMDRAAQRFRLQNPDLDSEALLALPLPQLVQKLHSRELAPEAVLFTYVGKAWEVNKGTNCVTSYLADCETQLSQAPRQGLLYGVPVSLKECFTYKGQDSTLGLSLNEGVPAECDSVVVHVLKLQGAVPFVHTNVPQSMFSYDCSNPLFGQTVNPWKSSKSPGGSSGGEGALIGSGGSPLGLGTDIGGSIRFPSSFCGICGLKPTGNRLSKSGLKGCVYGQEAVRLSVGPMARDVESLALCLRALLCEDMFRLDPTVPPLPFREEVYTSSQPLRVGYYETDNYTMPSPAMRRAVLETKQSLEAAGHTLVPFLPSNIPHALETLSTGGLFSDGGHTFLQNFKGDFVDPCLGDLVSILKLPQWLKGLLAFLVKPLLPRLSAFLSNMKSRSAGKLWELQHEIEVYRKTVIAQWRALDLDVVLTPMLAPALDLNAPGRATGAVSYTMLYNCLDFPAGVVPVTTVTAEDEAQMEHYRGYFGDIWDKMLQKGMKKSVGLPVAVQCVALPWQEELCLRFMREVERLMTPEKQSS
Examples of molecules with documented Ki follow.
value.kind: Ki

- molecule: "C[C@]1(c2cnc(-c3ccccc3)s2)CC(Oc2cccnc2)=NO1 [II-23a]"
  recorded.result: "≤ 100 nM"
- molecule: "CS(=O)(=O)c1ccc(OC2=NO[C@@H](c3cnc(-c4ccccc4)s3)C2)cn1 [II-28a]"
  recorded.result: "≤ 100 nM"
- molecule: "BrC1=NO[C@@H](c2ccc3ncccc3c2)C1 [II-9a]"
  recorded.result: "≤ 100 nM"
- molecule: "CC(C)(C)OC(=O)Nc1nc2ccc([C@@H]3CC(Br)=NO3)cc2s1 [II-13b]"
  recorded.result: "100 to 1000 nM"
- molecule: "O[C@@H](CNC1=NO[C@@H](c2cc(-c3ccccc3)cs2)C1)c1ccccc1 [II-31a]"
  recorded.result: "≥ 1000 nM"
- molecule: "BrC1=NO[C@H](c2cnc(-c3ccccc3)s2)C1 [II-6b]"
  recorded.result: "≤ 100 nM"
- molecule: "BrC1=NO[C@H](c2cc(-c3ccccc3)cs2)C1 [II-8b]"
  recorded.result: "≤ 100 nM"
- molecule: "C[C@]1(c2cnc(-c3ccccc3)s2)CC(Oc2ccc(S(C)(=O)=O)nc2)=NO1 [II-29a]"
  recorded.result: "≤ 100 nM"
- molecule: "Clc1ccc(-c2ncc([C@@H]3CC(Br)=NO3)s2)cc1 [II-17b]"
  recorded.result: "≤ 100 nM"

----------
Examples of compounds with documented Ki follow.
# test.target: human FAAH (Homo sapiens)

- compound: "O[C@H](CNC1=NO[C@@H](c2cc(-c3ccccc3)cs2)C1)c1ccccc1 [II-30a]"
  Ki: "≥ 1 µM"
- compound: "BrC1=NO[C@@H](c2cccnc2)C1 [II-2a]"
  Ki: "≥ 1 µM"
- compound: "BrC1=NO[C@@H](c2ccc(-c3ccccc3)s2)C1 [II-7a]"
  Ki: "≤ 0.1 µM"
- compound: "CS(=O)(=O)c1ccc(OC2=NO[C@H](c3cnc(-c4ccccc4)s3)C2)cn1 [II-28b]"
  Ki: "≤ 0.1 µM"
- compound: "C[C@@]1(c2cnc(-c3ccccc3)s2)CC(Oc2ccc(S(C)(=O)=O)nc2)=NO1 [II-29b]"
  Ki: "≤ 0.1 µM"
- compound: "C[C@]1(c2cnc(-c3ccccc3)s2)CC(Br)=NO1 [II-18a]"
  Ki: "≤ 0.1 µM"
- compound: "BrC1=NO[C@@H](c2cnn(-c3ccccc3)c2)C1 [II-4a]"
  Ki: "0.1 to 1 µM"
- compound: "CC(C)(C)OC(=O)N1CCN(C[C@@H]2CC(Br)=NO2)CC1 [II-14b]"
  Ki: "≤ 0.1 µM"
- compound: "C[C@@H]1C(Br)=NO[C@H]1c1cnc(-c2ccccc2)s1 [II-20a]"
  Ki: "≥ 1 µM"
- compound: "BrC1=NO[C@@H](c2cnc3ccccc3c2)C1 [II-10a]"
  Ki: "≤ 0.1 µM"
- compound: "C[C@@]1(c2cnc(-c3ccccc3)s2)CC(Oc2cncnc2)=NO1 [II-22b]"
  Ki: "≤ 0.1 µM"
- compound: "C[C@]1(c2cnc(-c3ccccc3)s2)CC(Oc2cncnc2)=NO1 [II-22a]"
  Ki: "≤ 0.1 µM"
- compound: "O=C(O)c1ccc(OC2=NO[C@H](c3ccc(-c4cccnc4)s3)C2)cn1 [II-27b]"
  Ki: "≤ 0.1 µM"
- compound: "O=C(OCc1ccccc1)N1CCC([C@H]2CC(Br)=NO2)CC1 [II-15a]"
  Ki: "0.1 to 1 µM"
- compound: "Cc1nc(-c2ccccc2)sc1[C@@]1(C)CC(Br)=NO1 [II-24a]"
  Ki: "0.1 to 1 µM"
- compound: "CC(C)(C)OC(=O)N1CCN(C[C@H]2CC(Br)=NO2)CC1 [II-14a]"
  Ki: "≤ 0.1 µM"
- compound: "BrC1=NO[C@H](c2ccc3ncccc3c2)C1 [II-9b]"
  Ki: "≤ 0.1 µM"
- compound: "c1ccc(-c2ncc([C@H]3CC(Oc4cccnc4)=NO3)s2)cc1 [II-21a]"
  Ki: "≤ 0.1 µM"
- compound: "C[C@@H]1C(Br)=NO[C@@H]1c1cnc(-c2ccccc2)s1 [II-19b]"
  Ki: "≤ 0.1 µM"
- compound: "BrC1=NO[C@@H](c2ccc3nccnc3c2)C1 [II-11a]"
  Ki: "≤ 0.1 µM"
- compound: "C[C@H]1C(Br)=NO[C@H]1c1cnc(-c2ccccc2)s1 [II-19a]"
  Ki: "≤ 0.1 µM"
- compound: "C[C@@]1(c2cnc(-c3ccccc3)s2)CC(Oc2cccnc2)=NO1 [II-23b]"
  Ki: "≤ 0.1 µM"
- compound: "CC(C)(C)OC(=O)N1CCC([C@@H]2CC(Br)=NO2)CC1 [II-16b]"
  Ki: "≤ 0.1 µM"
- compound: "CC(C)(C)OC(=O)Nc1nc2ccc([C@H]3CC(Br)=NO3)cc2s1 [II-13a]"
  Ki: "0.1 to 1 µM"
- compound: "BrC1=NO[C@H](c2cnc3ccccc3c2)C1 [II-10b]"
  Ki: "≤ 0.1 µM"
- compound: "BrC1=NO[C@H](c2ccc(-c3cccnc3)s2)C1 [II-25b]"
  Ki: "≤ 0.1 µM"
- compound: "BrC1=NO[C@H](c2cccnc2)C1 [II-2b]"
  Ki: "≥ 1 µM"
- compound: "O=C(OCc1ccccc1)N1CCC([C@@H]2CC(Br)=NO2)CC1 [II-15b]"
  Ki: "0.1 to 1 µM"
- compound: "c1cncc(-c2ccc([C@H]3CC(Oc4cncnc4)=NO3)s2)c1 [II-26a]"
  Ki: "≤ 0.1 µM"
- compound: "BrC1=NO[C@@H](c2ccccn2)C1 [II-3a]"
  Ki: "≥ 1 µM"
- compound: "c1ccc(-c2ncc([C@@H]3CC(Oc4cccnc4)=NO3)s2)cc1 [II-21b]"
  Ki: "≤ 0.1 µM"
- compound: "c1cncc(-c2ccc([C@@H]3CC(Oc4cncnc4)=NO3)s2)c1 [II-26b]"
  Ki: "≤ 0.1 µM"
- compound: "Cc1nc(-c2ccccc2)sc1[C@]1(C)CC(Br)=NO1 [II-24b]"
  Ki: "0.1 to 1 µM"
- compound: "CC(C)(C)OC(=O)N1CCC([C@H]2CC(Br)=NO2)CC1 [II-16a]"
  Ki: "≤ 0.1 µM"
- compound: "O[C@@H](CNC1=NO[C@H](c2cc(-c3ccccc3)cs2)C1)c1ccccc1 [II-31b]"
  Ki: "≥ 1 µM"
- compound: "C[C@@]1(c2cnc(-c3ccccc3)s2)CC(Br)=NO1 [II-18b]"
  Ki: "≤ 0.1 µM"
- compound: "C[C@H]1C(Br)=NO[C@@H]1c1cnc(-c2ccccc2)s1 [II-20b]"
  Ki: "≥ 1 µM"
- compound: "O=C(O)c1ccc(OC2=NO[C@@H](c3ccc(-c4cccnc4)s3)C2)cn1 [II-27a]"
  Ki: "≤ 0.1 µM"
- compound: "BrC1=NO[C@H](c2ccc3nccnc3c2)C1 [II-11b]"
  Ki: "≤ 0.1 µM"
- compound: "Clc1ccc(-c2ncc([C@H]3CC(Br)=NO3)s2)cc1 [II-17a]"
  Ki: "≤ 0.1 µM"
- compound: "BrC1=NO[C@@H](c2ccc(-c3cccnc3)s2)C1 [II-25a]"
  Ki: "≤ 0.1 µM"

Data provenance is patent US8927551B2.
